# reported melting point; entries follow

| SMILES_ENTRY | VAL |
| --- | --- |
| CSc1nc(C)ccc1NC(=O)CCCCCSc1nc2ccccc2o1 | 140 to 141 °C |
| CSc1cc(C)nc(SC)c1NC(=O)CCCCCCCCSc1nc2ccccc2o1 | 123 to 124 °C |
| CSc1ncccc1NC(=O)CCCCCSc1nc2ccccc2s1 | 118 to 119 °C |
| COC(=O)c1cccc2nc(SCCCCCC(=O)Nc3c(SC)cc(C)nc3SC)oc12 | 141 to 142 °C |
| CSc1cc(C)nc(SC)c1NC(=O)CCCCCCCSc1nc2ccccc2o1 | 119 to 122 °C |

Attention now turns to another entry.
Q) Supply recorded melting point for `Cc1cc(SC(C)C)c(NC(=O)CSc2nc3ccccc3s2)c(SC(C)C)n1` here.
A) 117 to 118 °C

###

# reported melting point; entries follow

Q) Supply recorded melting point for `CSc1cc(C)nc(SC)c1NC(=O)CCCCCSc1nc2ncccc2o1` here.
A) 132 to 133 °C

Q) Supply recorded melting point for `Cc1cc(SC(C)C)c(NC(=O)CCCSc2nc3ccccc3o2)c(SC(C)C)n1` here.
A) 128 to 129 °C

Q) Supply recorded melting point for `Cc1cc(SC(C)C)c(NC(=O)CCCCCCSc2nc3ccccc3s2)c(SC(C)C)n1` here.
A) 74 to 76 °C

Q) Supply recorded melting point for `Cc1cc(SC(C)C)c(NC(=O)CCCCCCCSc2nc3ccccc3s2)c(SC(C)C)n1` here.
A) 107 to 108 °C

Q) Supply recorded melting point for `CCSc1cc(C)nc(SCC)c1NC(=O)CCCCSc1nc2c(C)c(Cl)cc(C(C)C)c2o1` here.
A) 141 to 142 °C

Q) Supply recorded melting point for `CSc1cc(C)nc(SC)c1NC(=O)CCCCCSc1nc2ccccc2o1` here.
A) 120 to 121 °C

###

# reported melting point; entries follow

Use the examples below as a reference point.
| SMILES_ENTRY | melting point |
| --- | --- |
| Cc1cc(SC(C)C)c(NC(=O)CCCCCSc2nc3ccccc3s2)c(SC(C)C)n1 | 84 to 86 °C |
| CCSc1cc(C)nc(SCC)c1NC(=O)CCCCSc1nc2ccccc2s1 | 102 to 104 °C |
| CSc1ncccc1NC(=O)CCCCCSc1nc2ccccc2[nH]1 | 121 to 123 °C |

Q) Supply recorded melting point for `Cc1cc(SC(C)C)c(NC(=O)CCCCCSc2nc3ccccc3[nH]2)c(SC(C)C)n1` here.
A) 175 to 176 °C

Q) Supply recorded melting point for `CSc1nc(C)ccc1NC(=O)CCCCCCCCSc1nc2ccccc2s1` here.
A) 104 to 105 °C

Q) Supply recorded melting point for `CSc1nc(C)nc(SC)c1NC(=O)CCCCCSc1nc2ccccc2o1` here.
A) 148 to 151 °C

Q) Supply recorded melting point for `CSc1nc(C)ccc1NC(=O)CSc1nc2ccccc2[nH]1` here.
A) 192 to 193 °C (dec.)

Q) Supply recorded melting point for `CCSc1cc(C)nc(SCC)c1NC(=O)CCCCCCCSc1nc2c(C)c(Cl)cc(C(C)C)c2o1` here.
A) 82 to 84 °C

###

PROPERTY_LABEL: melting point

| SMILES_ENTRY | melting point |
| --- | --- |
| Cc1cc(SC(C)C)c(NC(=O)CCCCSc2nc3ccccc3o2)c(SC(C)C)n1 | 129 to 130 °C |

Q) Supply recorded melting point for `CCSc1cc(C)nc(SCC)c1NC(=O)CCCCCCSc1nc2c(C)c(Cl)cc(C(C)C)c2o1` here.
A) 117 to 120 °C

Q) Supply recorded melting point for `CCSc1cc(C)nc(SCC)c1NC(=O)CCCCCCSc1nc2ccccc2s1` here.
A) 114 to 116 °C

Q) Supply recorded melting point for `Cc1cc(SC(C)C)c(NC(=O)CCCSc2nc3cccc(C(F)(F)F)c3o2)c(SC(C)C)n1` here.
A) 135 to 136 °C

Q) Supply recorded melting point for `Cc1cc(SC(C)C)c(NC(=O)CCCCSc2nc3ccccc3s2)c(SC(C)C)n1` here.
A) 107 to 109 °C

Q) Supply recorded melting point for `CSc1cc(C)nc(SC)c1NC(=O)CCCCSc1nc2c(C)c(Cl)cc(C(C)C)c2o1` here.
A) 155 to 156 °C

Q) Supply recorded melting point for `CSc1cc(C)nc(SC)c1NC(=O)CCCCCCSc1nc2cccc(C(F)(F)F)c2o1` here.
A) 129 to 131 °C

Q) Supply recorded melting point for `CCSc1cc(C)nc(SCC)c1NC(=O)CCCSc1nc2ccccc2[nH]1` here.
A) 160 to 161 °C

Q) Supply recorded melting point for `CCSc1cc(C)nc(SCC)c1NC(=O)CCCCCCCSc1nc2ccccc2o1` here.
A) 82 to 84 °C

Q) Supply recorded melting point for `CSc1cc(C)nc(SC)c1NC(=O)CSc1nc2cccc(C(F)(F)F)c2o1` here.
A) 207 to 209 °C

Q) Supply recorded melting point for `CSc1ncccc1NC(=O)CCCCCCCCSc1nc2ccccc2s1` here.
A) 107 to 108 °C
